biological target: Jun bZIP K268A;Fos bZIP R155A (human;human, UniProt P05412;P01100 252-315;137-200, K268A|R155A); assay: ITC
Sequence (P05412 252-315 K268A, chain 1 of 2): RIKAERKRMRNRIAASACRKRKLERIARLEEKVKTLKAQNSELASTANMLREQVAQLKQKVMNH
Sequence (P01100 137-200 R155A, chain 2 of 2): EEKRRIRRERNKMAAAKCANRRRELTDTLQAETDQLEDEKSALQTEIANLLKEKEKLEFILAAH
Value Type: pKd
Remember the convention: pKd equals -log10 of concentration in molar.

Indicate its recorded pKd; the binder in question is TRE duplex 15-mer (dsDNA) DNA 1: CGCGTGACTCACCCC DNA 2: GGGGTGAGTCACGCG
5.86
